- Target entity: Stimulator of interferon genes protein [1-379,R71H,G230A,H232R,R293Q] (Homo sapiens, UniProt Q86WV6, G230A/H232R/R293Q/R71H)
- Sequence (Q86WV6 whole entry R71H/G230A/H232R/R293Q, looked up): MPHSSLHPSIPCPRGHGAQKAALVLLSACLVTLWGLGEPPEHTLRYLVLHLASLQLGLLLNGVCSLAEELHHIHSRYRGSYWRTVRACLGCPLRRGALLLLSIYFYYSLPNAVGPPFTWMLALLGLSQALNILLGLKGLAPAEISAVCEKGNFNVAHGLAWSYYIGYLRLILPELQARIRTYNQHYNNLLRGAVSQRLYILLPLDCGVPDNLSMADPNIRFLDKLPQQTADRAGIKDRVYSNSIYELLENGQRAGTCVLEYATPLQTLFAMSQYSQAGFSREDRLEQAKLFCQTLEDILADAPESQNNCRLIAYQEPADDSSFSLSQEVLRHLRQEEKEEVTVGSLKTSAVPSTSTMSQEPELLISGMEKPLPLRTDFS
- Measurement notes: 3H-cGAMP Filtration Binding Assay (HAQ STING)

Molecule: Nc1nc2c(ncn2[C@@H]2O[C@@H]3COP(=O)(S)O[C@H]4[C@H](F)[C@H](n5cnc6c(N)ncnc65)O[C@@H]4COP(=O)(O)O[C@@H]2[C@@H]3F)c(=O)[nH]1 (some centres not stated) [US11453697, Example 143]
EC50, nM: 1.05
//
Molecule: Nc1nc2c(ncn2[C@@H]2O[C@@H]3COP(=O)(S)OC4[C@@H](COP(=O)(S)O[C@H]2C3)O[C@@H](n2nnc3c(N)ncnc32)[C@H]4F)c(=O)[nH]1 (some centres not stated) [US11453697, Example 133]
EC50, nM: 61.4
